# System: Escherichia coli TOP10;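 further: peptides expressed intracellularly from a pBAD plasmid library in pooled LB shake-flask culture, induced with 0.3% L-arabinose, DNA abundance read by NGS, three biological replicates, DESeq2 with apeglm shrinkage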
# method-description: shrunken log2 fold change of peptide-encoding DNA abundance (4.5 h post-induction vs induction); higher = less antimicrobial activity (less host growth inhibition)
# assay-setup: time post-induction: 4.5 h; library: site-saturation at positions 5, 18, 19, 20
Assign a class from recorded shrunken log2 fold change; defined classes: band A = under -0.04, band B = from -0.04 up to 0.1, band C = 0.1 and over

sequence-chain	answer-label
RRIRWRPPRLPRPRPRPQFWPRP	band C
RRIRVRPPRLPRPRPRPDKRPRP	band B
RRIRVRPPRLPRPRPRPISAPRP	band C
RRIRDRPPRLPRPRPRPEISPRP	band C

**Query** Sort into band: `RRIRSRPPRLPRPRPRPTYSPRP`
**Result** band A

**Query** Sort into band: `RRIRERPPRLPRPRPRPHTKPRP`
**Result** band B

**Query** Sort into band: `RRIRKRPPRLPRPRPRPFRQPRP`
**Result** band A

**Query** Sort into band: `RRIRARPPRLPRPRPRPCVWPRP`
**Result** band C

**Query** Sort into band: `RRIRIRPPRLPRPRPRPHREPRP`
**Result** band A

**Query** Sort into band: `RRIRERPPRLPRPRPRPAWMPRP`
**Result** band C

Origin of measurements: the supplement of paper PMC9112550
